ASSAY_PROTOCOL: Half life in human liver microsomes at 1 uM by LC-MS/MS analysis
Listed compounds paired with reported half-life at 1 µM

Take a look at these entries with their results.
INSERT INTO measurements (compound, test_result) VALUES
  ('CC(=O)N[C@@H]1CC[C@@]2(C)C(=CC[C@@H]3[C@@H]2CC[C@]2(C)C(c4cncc(C(F)(F)F)c4)=CC[C@@H]32)C1', '1 to 50 min'),
  ('CC1C[C@@H]2[C@H](CC[C@]3(C)C(c4cccnc4)CC[C@@H]23)[C@@]2(C)C=CC(=O)C=C12 (some centres undefined)', '1 to 50 min'),
  ('C=C1CC2[C@H](CC[C@]3(C)C(c4cccnc4)=CC[C@@H]23)C2(C)C=CC(=O)C=C12 (single isomer, unassigned)', '1 to 50 min');

Summary for this compound, "C[C@]12CC[C@H](O)CC1=CC[C@@H]1[C@@H]2CC[C@]2(C)C(c3cccnc3)=CC[C@@H]12" : half-life at 1 µM is 1 to 50 min

Summary for this compound, CC1C[C@@H]2[C@H](CC[C@]3(C)C(c4cccnc4)=CC[C@@H]23)[C@@]2(C)CCC(=O)C=C12 (some centres undefined) : half-life at 1 µM is 1 to 50 min

Summary for this compound, "C[C@]12CCNC(=O)C=C1CC[C@@H]1[C@@H]2CC[C@]2(C)C(n3ncnn3)=CC[C@@H]12" : half-life at 1 µM is 1 to 10 min

Summary for this compound, C[C@]12CCC(F)CC1=CC[C@@H]1[C@@H]2CC[C@]2(C)C(c3cncc(F)c3)=CC[C@@H]12 (some centres undefined) : half-life at 1 µM is ≥ 50 min

----------
Listed compounds paired with reported half-life at 1 µM
ASSAY_PROTOCOL: Half life in human liver microsomes at 1 uM by LC-MS/MS analysis

Take a look at these entries with their results.
INSERT INTO assay_data (compound, test_result) VALUES
  ('C[C@]12CCNC(=O)C=C1CC[C@@H]1[C@@H]2CC[C@]2(C)C(n3ccnc3)=CC[C@@H]12', '≥ 50 min'),
  ('C[C@]1(O)CC[C@@]2(C)C(CC[C@@H]3[C@@H]2CC[C@]2(C)C(c4cccnc4)=CC[C@@H]32)C1 (some centres not stated)', '1 to 50 min'),
  ('CC1C[C@@H]2[C@H](CC[C@]3(C)C(c4cccnc4)=CC[C@@H]23)[C@@]2(C)C=CC(=O)C=C12 (some centres not stated)', '1 to 50 min'),
  ('C[C@]12CC[C@H]3[C@@H](CC[C@H]4C[C@@H](O)CC[C@@]43C)C1=CC=C2n1ccnc1', '≥ 50 min'),
  ('C[C@]12CCCCC1C(O)C[C@@H]1[C@@H]2CC[C@]2(C)C(n3ccnc3)=CC[C@@H]12 (some centres not stated)', '1 to 50 min'),
  ('CC(=O)N[C@@H]1CC[C@@]2(C)C(=CC[C@@H]3[C@@H]2CC[C@]2(C)C(c4cccnc4)=CC[C@@H]32)C1', '1 to 50 min');

Would you kindly look at the next entry?
Summary for this compound, "C[C@]12CCNC(=O)C[C@@H]1CC[C@@H]1[C@@H]2CC[C@]2(C)C(n3ccnc3)=CC[C@@H]12" : half-life at 1 µM is ≥ 50 min
